Biological target: PDE 4 (phosphodiesterase IV)
Test: PDE 4 inhibiting effect (3H-cAMP hydrolysis, PDE 4 active fraction from Balb/c mouse liver)
Format: biochemical
Conditions: PDE 4 fraction from Balb/c mice liver, 0.064 μM cAMP, 2 hours at 25° C.; read-out: PDE4 IC50
pIC50: −log10 of the molar value.
# key: entry, value: pIC50

sample.smiles: Cc1nn(C2CCCCC2)c2sc(C(=O)Nc3ccc(C(=O)NC(C)C)cc3)cc12
pIC50: 4.92
--
sample.smiles: Cc1nn(C2CCCCC2)c2sc(C(=O)Nc3ccc(C(=O)N[C@H]4CC[C@H](O)CC4)nc3)cc12
pIC50: 6.21
--
sample.smiles: Cc1nn(C2CCCCCC2)c2sc(C(=O)Nc3ccc(N4CCN(C)CC4)cc3)cc12
pIC50: 5.92
--
sample.smiles: Cc1nn(C2CCCCC2)c2sc(C(=O)Nc3ccc(C(=O)N4CCC(O)CC4)nc3)cc12
pIC50: 5.60
--
sample.smiles: Cc1nn(C2CCCCC2)c2sc(C(=O)N[C@H]3CC[C@H](C(=O)N4CCC(O)CC4)CC3)cc12
pIC50: 5.59
--
sample.smiles: Cc1nn(C2CCCCC2)c2sc(C(=O)Nc3ccc(CCN4CCOCC4)cc3)cc12
pIC50: 5.66
--
sample.smiles: CNC(=O)COc1ccc(NC(=O)c2cc3c(C)nn(C4CCCCC4)c3s2)cc1
pIC50: 5.46
--
sample.smiles: Cc1nn(C2CCCCC2)c2sc(C(=O)NC3CCN(C4CCOCC4)CC3)cc12
pIC50: 5.13
--
sample.smiles: Cc1nn(C2CCCCC2)c2sc(C(=O)Nc3ccc(N4C(=O)CN(C)C4=O)cc3)cc12
pIC50: 5.85
--
sample.smiles: COc1cc(NC(=O)c2cc3c(C)nn(C4CCCCC4)c3s2)ccc1C(=O)NCCO
pIC50: 6.15
--
sample.smiles: Cc1nn(C2CCCCC2)c2sc(C(=O)Nc3ccc(N4CCN(C)CC4)c(F)c3)cc12
pIC50: 5.82
--
sample.smiles: Cc1nn(C2CCCCC2)c2sc(C(=O)NCCN3CCN(C)C(=O)C3=O)cc12
pIC50: 5.24
--
sample.smiles: CC(=O)c1ccc(NC(=O)c2cc3c(C)nn(C4CCCCC4)c3s2)cc1
pIC50: 5.30
--
sample.smiles: Cc1nn(C2CCOCC2)c2sc(C(=O)Nc3ccc(N4C(=O)CN(C)C4=O)cc3)cc12
pIC50: 5.35
--
sample.smiles: Cc1nn(C2CCCCC2)c2sc(C(=O)NCCN3CCN(C)C3=O)cc12
pIC50: 5.21
--
sample.smiles: Cc1nn(C2CCCCC2)c2sc(C(=O)N[C@H]3CC[C@H](N4CCCN(C)CC4)CC3)cc12
pIC50: 6.00
--
sample.smiles: Cc1nn(C2CCOCC2)c2sc(C(=O)Nc3ccc(N4CCNC4=O)nc3)cc12
pIC50: 5.72

* * *

# key: entry, value: pIC50
Molecular target: PDE 7 (phosphodiesterase VII) (Homo sapiens (Human), UniProt Q13946)
Sequence (Q13946 whole entry): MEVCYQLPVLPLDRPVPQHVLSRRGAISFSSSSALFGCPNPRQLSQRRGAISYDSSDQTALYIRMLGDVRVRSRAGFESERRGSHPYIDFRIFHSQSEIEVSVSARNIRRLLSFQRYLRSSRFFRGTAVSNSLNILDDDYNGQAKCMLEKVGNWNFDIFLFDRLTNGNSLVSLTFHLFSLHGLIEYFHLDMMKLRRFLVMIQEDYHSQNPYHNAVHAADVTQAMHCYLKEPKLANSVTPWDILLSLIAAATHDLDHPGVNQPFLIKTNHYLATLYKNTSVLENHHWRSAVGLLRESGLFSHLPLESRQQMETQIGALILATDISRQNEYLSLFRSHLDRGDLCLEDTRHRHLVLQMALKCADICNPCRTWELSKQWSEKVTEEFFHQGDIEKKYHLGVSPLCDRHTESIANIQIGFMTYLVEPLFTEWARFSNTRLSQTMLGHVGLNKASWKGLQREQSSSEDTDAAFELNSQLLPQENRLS
Test: PDE 7 inhibiting effect (3H-cAMP hydrolysis, PDE 7 active fraction from MOLT-4 cells)
Type: biochemical
Settings: PDE 7 fraction from MOLT-4 cells, 0.064 μM cAMP, 10 μM rolipram, 2 hours at 25° C.; read-out: PDE7 IC50
pIC50: −log10 of the molar value. Counter-ions that a name gives are not always drawn.

compound: Cc1nn(C2CCCCC2)c2sc(C(=O)Nc3ccc(CN4CCC(O)CC4)nc3)cc12
target: PDE 7 (phosphodiesterase VII) (Homo sapiens (Human), UniProt Q13946)
pIC50: 7.52

compound: Cc1nn(C2CCCCC2)c2sc(C(=O)NCCN3CCN(C)C(=O)C3=O)cc12
target: PDE 7 (phosphodiesterase VII) (Homo sapiens (Human), UniProt Q13946)
pIC50: 7.29

compound: Cc1nn(C2CCCCC2)c2sc(C(=O)Nc3ccc(CCN4CCOCC4)cc3)cc12
target: PDE 7 (phosphodiesterase VII) (Homo sapiens (Human), UniProt Q13946)
pIC50: 7.74

compound: Cc1nn(C2CCCCC2)c2sc(C(=O)N[C@H]3CC[C@H](C(=O)N4CCC(O)CC4)CC3)cc12
target: PDE 7 (phosphodiesterase VII) (Homo sapiens (Human), UniProt Q13946)
pIC50: 7.82

compound: CNC(=O)Cc1ccc(NC(=O)c2cc3c(C)nn(C4CCCCC4)c3s2)cc1
target: PDE 7 (phosphodiesterase VII) (Homo sapiens (Human), UniProt Q13946)
pIC50: 7.60

compound: Cc1nn(C2CCOCC2)c2sc(C(=O)N[C@H]3CC[C@H](N4CCC(C(=O)N(C)C)CC4)CC3)cc12
target: PDE 7 (phosphodiesterase VII) (Homo sapiens (Human), UniProt Q13946)
pIC50: 7.30

compound: Cc1nn(C2CCCCC2)c2sc(C(=O)Nc3cccc(S(=O)(=O)N4CCN(C)CC4)c3)cc12 [Example 110, HCl salt]
target: PDE 7 (phosphodiesterase VII) (Homo sapiens (Human), UniProt Q13946)
pIC50: 7.12

compound: Cc1nn(C2CCCCC2)c2sc(C(=O)N[C@H]3CC[C@H](N4C(=O)CCC4=O)CC3)cc12
target: PDE 7 (phosphodiesterase VII) (Homo sapiens (Human), UniProt Q13946)
pIC50: 7.85

* * *

Target: PDE 4 (phosphodiesterase IV)
Test: PDE 4 inhibiting effect (3H-cAMP hydrolysis, PDE 4 active fraction from Balb/c mouse liver)
Assay type: biochemical
Details: PDE 4 fraction from Balb/c mice liver, 0.064 μM cAMP, 2 hours at 25° C.; methanesulfonate; read-out: PDE4 IC50
pIC50: −log10 of the molar value.

compound: Cc1nn(C2CCCCC2)c2sc(C(=O)Nc3ccc(N4CCN(C)CC4)cc3)cc12 [Example 107, methanesulfonate]
pIC50: 5.70

* * *

Target: PDE 7 (phosphodiesterase VII) (Homo sapiens (Human), UniProt Q13946)
Experiment: PDE 7 inhibiting effect (3H-cAMP hydrolysis, PDE 7 active fraction from MOLT-4 cells)
Format: biochemical
Conditions: PDE 7 fraction from MOLT-4 cells, 0.064 μM cAMP, 10 μM rolipram, 2 hours at 25° C.; read-out: PDE7 IC50
pIC50: −log10 of the molar value. Counter-ions that a name gives are not always drawn.

compound: Cc1nn(C2CCOCC2)c2sc(C(=O)Nc3ccc(N4CCC(O)CC4)c(F)c3)cc12
target: PDE 7 (phosphodiesterase VII) (Homo sapiens (Human), UniProt Q13946)
pIC50: 7.06
--
compound: CNC1CCN([C@H]2CC[C@H](NC(=O)c3cc4c(C)nn(C5CCCCC5)c4s3)CC2)CC1
target: PDE 7 (phosphodiesterase VII) (Homo sapiens (Human), UniProt Q13946)
pIC50: 8.51
--
compound: CC(=O)N1CCN(c2ccc(NC(=O)c3cc4c(C)nn(C5CCCCC5)c4s3)cc2)CC1
target: PDE 7 (phosphodiesterase VII) (Homo sapiens (Human), UniProt Q13946)
pIC50: 7.92
--
compound: Cc1nn(C2CCCCC2)c2sc(C(=O)NCCN3C(=O)CN(C)C3=O)cc12
target: PDE 7 (phosphodiesterase VII) (Homo sapiens (Human), UniProt Q13946)
pIC50: 7.49
--
compound: Cc1nn(C2CCOCC2)c2sc(C(=O)N[C@H]3CC[C@H](N4C[C@@H](C)O[C@@H](C)C4)CC3)cc12
target: PDE 7 (phosphodiesterase VII) (Homo sapiens (Human), UniProt Q13946)
pIC50: 7.72
--
compound: Cc1nn(C2CCCCC2)c2sc(C(=O)N[C@H]3CC[C@H](NC(=O)N(C)CC(=O)OCc4ccccc4)CC3)cc12
target: PDE 7 (phosphodiesterase VII) (Homo sapiens (Human), UniProt Q13946)
pIC50: 8.40
--
compound: Cc1nn(C2CCCCC2)c2sc(C(=O)Nc3ccc(N4CCNC(=O)C4)cc3)cc12
target: PDE 7 (phosphodiesterase VII) (Homo sapiens (Human), UniProt Q13946)
pIC50: 8.30
--
compound: Cc1nn(C2CCOCC2)c2sc(C(=O)N[C@H]3CC[C@H](N4CCN(C)CC4=O)CC3)cc12
target: PDE 7 (phosphodiesterase VII) (Homo sapiens (Human), UniProt Q13946)
pIC50: 7.03
--
compound: Cc1nn(C2CCCCC2)c2sc(C(=O)N[C@H]3CC[C@H](N4CCC(N)CC4)CC3)cc12
target: PDE 7 (phosphodiesterase VII) (Homo sapiens (Human), UniProt Q13946)
pIC50: 8.17
--
compound: Cc1nn(C2CCCCC2)c2sc(C(=O)Nc3ccc(N4CCC(O)CC4)cc3)cc12
target: PDE 7 (phosphodiesterase VII) (Homo sapiens (Human), UniProt Q13946)
pIC50: 7.68
--
compound: COCC(=O)Nc1ccc(NC(=O)c2cc3c(C)nn(C4CCCCC4)c3s2)cc1
target: PDE 7 (phosphodiesterase VII) (Homo sapiens (Human), UniProt Q13946)
pIC50: 7.52
--
compound: Cc1nn(C2CCCCC2)c2sc(C(=O)Nc3ccc(C4CCNCC4)cc3)cc12 [Example 141, HCl salt]
target: PDE 7 (phosphodiesterase VII) (Homo sapiens (Human), UniProt Q13946)
pIC50: 7.66
--
compound: Cc1nn(C2CCCCC2)c2sc(C(=O)N[C@H]3CC[C@H](N4CCOC4=O)CC3)cc12
target: PDE 7 (phosphodiesterase VII) (Homo sapiens (Human), UniProt Q13946)
pIC50: 7.82
--
compound: CC(=O)N1CCN(Cc2ccc(NC(=O)c3cc4c(C)nn(C5CCCCC5)c4s3)cn2)CC1
target: PDE 7 (phosphodiesterase VII) (Homo sapiens (Human), UniProt Q13946)
pIC50: 7.46
--
compound: Cc1nn(C2CCCCC2)c2sc(C(=O)Nc3ccc(C(=O)N[C@H]4CC[C@H](O)CC4)nc3)cc12
target: PDE 7 (phosphodiesterase VII) (Homo sapiens (Human), UniProt Q13946)
pIC50: 7.60
--
compound: CCC(=O)N1CCc2cc(NC(=O)c3cc4c(C)nn(C5CCCCC5)c4s3)ccc21
target: PDE 7 (phosphodiesterase VII) (Homo sapiens (Human), UniProt Q13946)
pIC50: 7.08
